Target: T1, cMet-Fc fusion protein (extracellular domain of the cMet receptor expressed as an Fc-fusion protein) (human, UniProt P08581 25-932)
T1 construct: extracellular domain; also called soluble cMet-Fc-fusion protein; soluble cMet receptor; not shown: Fc part
T1 sequence (P08581 25-932): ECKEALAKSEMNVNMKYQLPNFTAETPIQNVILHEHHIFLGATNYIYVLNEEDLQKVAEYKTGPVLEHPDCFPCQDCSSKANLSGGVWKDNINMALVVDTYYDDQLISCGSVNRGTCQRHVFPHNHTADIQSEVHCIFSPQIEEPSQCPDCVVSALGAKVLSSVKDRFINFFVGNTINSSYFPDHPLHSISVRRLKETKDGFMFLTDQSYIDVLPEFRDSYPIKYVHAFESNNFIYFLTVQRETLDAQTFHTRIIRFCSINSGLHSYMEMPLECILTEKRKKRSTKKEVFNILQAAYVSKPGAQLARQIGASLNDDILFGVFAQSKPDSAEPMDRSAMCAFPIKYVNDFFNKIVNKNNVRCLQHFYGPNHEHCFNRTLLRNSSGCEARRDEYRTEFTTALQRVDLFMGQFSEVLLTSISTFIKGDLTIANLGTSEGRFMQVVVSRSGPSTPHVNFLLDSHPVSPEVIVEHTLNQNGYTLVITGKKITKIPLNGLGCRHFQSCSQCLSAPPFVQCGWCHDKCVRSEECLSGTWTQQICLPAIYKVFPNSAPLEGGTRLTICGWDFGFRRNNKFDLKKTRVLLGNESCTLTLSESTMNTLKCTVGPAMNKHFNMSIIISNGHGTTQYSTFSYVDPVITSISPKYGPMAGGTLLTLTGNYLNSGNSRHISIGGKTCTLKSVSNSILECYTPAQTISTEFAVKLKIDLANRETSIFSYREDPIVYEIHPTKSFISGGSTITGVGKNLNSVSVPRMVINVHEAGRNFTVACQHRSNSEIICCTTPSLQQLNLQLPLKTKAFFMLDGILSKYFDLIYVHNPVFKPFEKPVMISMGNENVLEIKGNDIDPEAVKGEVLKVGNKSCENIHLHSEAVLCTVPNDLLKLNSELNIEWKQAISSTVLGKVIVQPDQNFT
Assay: phage ELISA on cMet-Fc, competitor HGF 500 ng/mL
METRIC NAME: % of binding in the absence of HGF
Report as: number unit

Consider the following illustrative entries.
BINDER | % of binding in the absence of HGF
GSILYCINRNDPQCPYTAP [465-C10 peptide-displaying phage (SEQ ID NO: 101)] | 71%
AGDWHCQGPPAFMCWMIGT [330-C01 peptide-displaying phage (SEQ ID NO: 065)] | 43%
AQFDRYWHFAWMDVSFSSGQSG [92-B05 peptide-displaying phage (SEQ ID NO: 465)] | 94%

For each entry beneath this line, provide reported % of binding in the absence of HGF.
1. AGHGTCRGWPTFECIYFGT [332-A05 peptide-displaying phage (SEQ ID NO: 064)]
2. GDHLTCEFRDDGWKEHCWWSDP [552-F06 peptide-displaying phage (SEQ ID NO: 403)]
3. AGETTCLGWPTFVCVDYGT [548-E08 peptide-displaying phage (SEQ ID NO: 063)]
4. AGIWFCNNEEKSCWAYGT [471-A11 peptide-displaying phage (SEQ ID NO: 040)]
5. AQMYQTPDGVIGKFVDWMFN [119-F06 peptide-displaying phage (SEQ ID NO: 455)]
6. AGVIVCNLSMMYCLYPGT [499-C09 peptide-displaying phage (SEQ ID NO: 023)]

Result:
["21%", "32%", "50%", "80%", "27%", "70%"]

Sourced from patent US20120039802A1
